# Test system: OVCAR-5 ovarian
# assay_summary: NCI tumour cell line growth inhibition, 48 h
Property: TGI; scope: individual compounds

| compound | TGI |
| --- | --- |
| O=C1NC2CCCCC2N=C1CC(=O)c1ccc(Br)cc1 (centres undefined) | > 100 µM |
| O=c1cccc(C2CC(CO)C3CCCCN3C2)[nH]1 (centres undefined) | > 100 µM |
| COC(=O)C(CC(=O)Nc1ccc(C)cc1)C(=O)C(=O)Nc1ccccc1C(C)C (centres undefined) | > 100 µM |
| Nc1ccccc1C#C/C=C\C#Cc1ccccc1[N+](=O)[O-] | 33.6 µM |

* * *

# System: CAKI-1 renal
# assay_summary: NCI tumour cell line growth inhibition, 48 h
Respond with Condition met for TGI values of 9 µM and above, Condition not met for values below.

| molecule | tested_system | discrete_label |
| --- | --- | --- |
| NCCCCNCCCNC(=O)c1nc(-c2nc(CCN)sc2Cl)sc1Cl | CAKI-1 renal | Condition met |
| CCOc1cccc(/C=N/NC(=O)C(=O)Nc2cccc(C(F)(F)F)c2)c1O | CAKI-1 renal | Condition not met |
| CCc1c(CNc2ccc(C(=O)NC(CC(=O)O)C(=O)O)cc2)ccc2nc(N)nc(N)c12 (configuration not stated) | CAKI-1 renal | Condition met |
| CC(C)c1cccc(C(C)C)c1NC(=O)/C(CC(=O)CC(c1ccccc1)c1c(O)c2ccccc2oc1=O)=N/O (configuration not stated) | CAKI-1 renal | Condition met |
| CCn1c2ccc(O)cc2c2c(C)c3c[n+](C)ccc3c(C)c21 | CAKI-1 renal | Condition met |
| CNCCn1c(=O)c2cc(OC)c(OC)cc2c2ccc3cc4c(cc3c21)OCO4 | CAKI-1 renal | Condition not met |
| C/C(CCc1ccccc1)=N\NC(N)=S | CAKI-1 renal | Condition met |
| CCOP(=O)(OCC)OC(C#N)c1ccc(-c2ccccc2)cc1 (configuration not stated) | CAKI-1 renal | Condition met |
| COc1cc2cc(C(=O)N3C[C@H](CCl)c4c3cc(N)c3ccccc43)[nH]c2c(OC)c1OC | CAKI-1 renal | Condition not met |
| CC(C)N1CC2CC(CN(C(=O)c3ccccc3)C2)C1 | CAKI-1 renal | Condition met |
| CC1C(NNc2ccccc2)Oc2cc3c(cc2C1c1ccccc1O)OCO3 (configuration not stated) | CAKI-1 renal | Condition met |
| Cc1ccc2c(c1)-c1c(C#N)c(N)nc(-c3ccc(Cl)cc3)c1CCS2(=O)=O | CAKI-1 renal | Condition met |
| O=C1C=CC(=O)N1n1c(-c2ccccc2)n[nH]c1=O | CAKI-1 renal | Condition met |
| CC(C)C(CC(=O)OCC(CO)OC(=O)CC(C(C)C)C(C)C)C(C)C (configuration not stated) | CAKI-1 renal | Condition met |
| CCCCSc1nsc(N(C(=O)c2ccccc2)C(=O)c2ccccc2)n1 | CAKI-1 renal | Condition met |
| O=C1C=CC=C/C1=C1\N=C(c2ccccc2OCC(=O)c2ccccc2)SS1 | CAKI-1 renal | Condition met |
| c1ccc2c(c1)Sc1nccc3ccnc-2c13 | CAKI-1 renal | Condition met |
| Cc1cccc(-n2c(=S)[nH]c3c(sc(=O)n3-c3ccccc3C)c2=O)c1 | CAKI-1 renal | Condition met |
| NC(=O)c1cc2c3ccccc3ccn2c1-c1ccccc1 | CAKI-1 renal | Condition not met |
| COC(=O)C1=C(C(=O)OC)SC(=CC#CC=C2SC(C(=O)OC)=C(C(=O)OC)S2)S1 | CAKI-1 renal | Condition met |
| O=C(c1ccncc1)n1nc(-c2ccccc2)c(N=Nc2ccccc2[N+](=O)[O-])c1-c1ccccc1 | CAKI-1 renal | Condition met |
| COc1cc(-c2cn(-c3ccc(Cl)c(Cl)c3)c(=O)n2C(C)=O)cc(OC)c1OC | CAKI-1 renal | Condition met |
| COc1cc(CC(C)NC(C)=O)cc(OC)c1 (configuration not stated) | CAKI-1 renal | Condition met |
| N#C/C(=C/n1c(=S)[nH]c2ccc([N+](=O)[O-])cc21)C(N)=O | CAKI-1 renal | Condition met |
| CN(C)CCCNC(=O)c1cc(NC(=O)c2cc(NC(=O)CCCn3c4ccccc4c4ccccc43)cn2C)cn1C | CAKI-1 renal | Condition met |
| NC(=S)NNc1c([N+](=O)[O-])cnn(-c2ccccc2)c1=O | CAKI-1 renal | Condition met |
| CN(C)CC1CCC/C1=N\O (configuration not stated) | CAKI-1 renal | Condition met |
| C=C1OC(c2ccccc2NC)=NC12CCCCC2 | CAKI-1 renal | Condition met |
| Cc1ccc(C(=O)N/N=C(\N=Nc2ccccc2)c2ccc(N(C)C)cc2)cc1 | CAKI-1 renal | Condition met |
| CCOC(=O)C1(C#N)C(c2ccccc2)CC(O)(c2ccc(Cl)cc2)C(C(=O)c2ccc(Cl)cc2)C1c1ccccc1 (configuration not stated) | CAKI-1 renal | Condition met |
| NC(=O)c1csc(C2(O)COC(CO)C2O)n1 (configuration not stated) | CAKI-1 renal | Condition met |
| CCCCOc1ccc(OCCCCCCCCCC[N+](C)(C)C)cc1 | CAKI-1 renal | Condition met |
| Nc1ccc(C(=O)CC(N)C(=O)O)cc1O (configuration not stated) | CAKI-1 renal | Condition met |
| Cc1cc2c(cc1C)N(C(=O)CCl)CCN2C(=O)CCl | CAKI-1 renal | Condition not met |
| COc1cc(-c2n/c(=C\c3c(O)[nH]c4ccc(Cl)cc34)cc3c2=Nc2ccccc2-3)ccc1F | CAKI-1 renal | Condition not met |
| Cc1c(CN2CCN(C)CC2)c(CN2CCN(C)CC2)c(C)n1-c1ccc(Cl)cc1 | CAKI-1 renal | Condition met |
| COc1cc2c(=O)n(CCN)c3c4cc5c(cc4ccc3c2cc1OC)OCO5 | CAKI-1 renal | Condition not met |
| COc1ccccc1CN=C1Nc2ccncc2S(=O)(=O)N1c1ccccc1 | CAKI-1 renal | Condition met |
| CC1(C)OCC2OC3([C@@H]4OC(C)(C)O[C@H]4CO)OC(C)(C)OC3C2O1 (some centres not stated) | CAKI-1 renal | Condition met |
| COc1ccc(N2C(=O)[C@H]3CC(C)c4c([nH]c5ccccc45)[C@H]3C2=O)cc1 (some centres not stated) | CAKI-1 renal | Condition met |
| Cc1ccc(-c2cc(-c3ccco3)c(C#N)c(=O)n2C2OC(OC(=O)c3ccccc3)C(OC(=O)c3ccccc3)C2OC(=O)c2ccccc2)cc1 (configuration not stated) | CAKI-1 renal | Condition met |
| Cc1c(C(=O)NCCN2CCOCC2)cn2ncnc(Oc3ccc(NC(=O)Nc4ccc(Cl)c(C(F)(F)F)c4)cc3)c12 | CAKI-1 renal | Condition not met |
